- System: Streptococcus pneumoniae
- method summary: Antimicrobial activity against penicillin-susceptible Streptococcus pneumoniae PU09 incubated for 20 to 24 hrs by two-fold microbroth dilution method
- Type: functional
Reported MIC values follow for various molecules

Please review the entries below; each comes with its answer.
chemical smiles	MIC
CC[C@H]1OC(=O)[C@H](C)C(=O)[C@H](C)[C@@H](O[C@@H]2O[C@H](C)C[C@H](N(C)C)[C@H]2O)[C@](C)(OC)C[C@@H](C)/C(=N\OC/C=C/c2cnc3ccccc3c2)[C@H](C)[C@H]2OC(=O)O[C@@]21C	0.25 µg/mL
CC[C@H]1OC(=O)[C@H](C)[C@@H](OC(=O)Cc2ccccn2)[C@H](C)[C@@H](O[C@@H]2O[C@H](C)C[C@H](N(C)C)[C@H]2O)[C@](C)(OC)C[C@@H](C)/C(=N\OCC#Cc2ccc(NC(=O)Cc3ccccn3)nc2)[C@H](C)[C@H]2OC(=O)O[C@@]21C	1 µg/mL
CC[C@H]1OC(=O)[C@H](C)[C@@H](OC(=O)Cc2ccccn2)[C@H](C)[C@@H](O[C@@H]2O[C@H](C)C[C@H](N(C)C)[C@H]2O)[C@](C)(OC)C[C@@H](C)/C(=N\OCC#Cc2ccc(N)nc2)[C@H](C)[C@H]2OC(=O)O[C@@]21C	0.5 µg/mL

Request the reported MIC associated with "CC[C@H]1OC(=O)[C@H](C)[C@@H](OC(=O)Cc2ccccn2)[C@H](C)[C@@H](O[C@@H]2O[C@H](C)C[C@H](N(C)C)[C@H]2O)[C@](C)(OC)C[C@@H](C)/C(=N\OCCCc2ccc(NC(=O)Cc3ccccn3)nc2)[C@H](C)[C@H]2OC(=O)O[C@@]21C"
2 µg/mL

---

- Test system: Moraxella catarrhalis
- method summary: Ratio of MBC to MIC against erythromycin-susceptible Moraxella catarrhalis 11B366
- Assay type: functional
experimental endpoint: Ratio
API doc: respond with a numeric literal and nothing else, no unit.

chemical smiles	experimental endpoint	value
CC[C@H]1OC(=O)[C@H](C)[C@@H](OC(=O)Cc2ccccn2)[C@H](C)[C@@H](O[C@@H]2O[C@H](C)C[C@H](N(C)C)[C@H]2O)[C@](C)(OC)C[C@@H](C)/C(=N\OCC#Cc2cncc(C(N)=O)c2)[C@H](C)[C@H]2OC(=O)O[C@@]21C	Ratio	2
CC[C@H]1OC(=O)[C@H](C)[C@@H](OC(=O)Cc2ccccn2)[C@H](C)[C@@H](O[C@@H]2O[C@H](C)C[C@H](N(C)C)[C@H]2O)[C@](C)(OC)C[C@@H](C)/C(=N\OCC#Cc2ccc3nccnc3c2)[C@H](C)[C@H]2OC(=O)O[C@@]21C	Ratio	1
CC[C@H]1OC(=O)[C@H](C)[C@@H](OC(=O)Cc2ccccn2)[C@H](C)[C@@H](O[C@@H]2O[C@H](C)C[C@H](N(C)C)[C@H]2O)[C@](C)(OC)C[C@@H](C)/C(=N\OCC#Cc2cccnc2)[C@H](C)[C@H]2OC(=O)O[C@@]21C	Ratio	2
CC[C@H]1OC(=O)[C@H](C)[C@@H](OC(=O)Cc2ccccn2)[C@H](C)[C@@H](O[C@@H]2O[C@H](C)C[C@H](N(C)C)[C@H]2O)[C@](C)(OC)C[C@@H](C)/C(=N\OCC#Cc2ccc(-n3ccnc3)cc2)[C@H](C)[C@H]2OC(=O)O[C@@]21C	Ratio	2
CC[C@H]1OC(=O)[C@H](C)[C@@H](O[C@H]2C[C@@](C)(OC)[C@@H](O)[C@H](C)O2)[C@H](C)[C@@H](O[C@@H]2O[C@H](C)C[C@H](N(C)C)[C@H]2O)[C@](C)(OC)C[C@@H](C)C(=O)[C@H](C)[C@@H](O)[C@]1(C)O	Ratio	2

Request the reported Ratio associated with "CC[C@H]1OC(=O)[C@H](C)C(=O)[C@H](C)[C@@H](O[C@@H]2O[C@H](C)C[C@H](N(C)C)[C@H]2O)[C@](C)(OC)C[C@@H](C)/C(=N\OC/C=C/c2cnc3ccccc3c2)[C@H](C)[C@H]2OC(=O)O[C@@]21C"
1

Request the reported Ratio associated with "CC[C@H]1OC(=O)[C@H](C)[C@@H](OC(=O)Cc2ccccn2)[C@H](C)[C@@H](O[C@@H]2O[C@H](C)C[C@H](N(C)C)[C@H]2O)[C@](C)(OC)C[C@@H](C)/C(=N\OCC#Cc2cnc(N)nc2)[C@H](C)[C@H]2OC(=O)O[C@@]21C"
2

Request the reported Ratio associated with "CC[C@H]1OC(=O)[C@H](C)[C@@H](OC(=O)Cc2ccccn2)[C@H](C)[C@@H](O[C@@H]2O[C@H](C)C[C@H](N(C)C)[C@H]2O)[C@](C)(OC)C[C@@H](C)/C(=N\OCC#Cc2cncc(N)c2)[C@H](C)[C@H]2OC(=O)O[C@@]21C"
2

Request the reported Ratio associated with "CC[C@H]1OC(=O)[C@H](C)C(=O)[C@H](C)[C@@H](O[C@@H]2O[C@H](C)C[C@H](N(C)C)[C@H]2O)[C@](C)(OC)C[C@@H](C)C(=O)[C@H](C)[C@H]2N(CCCCn3cnc(-c4cccnc4)c3)C(=O)O[C@]12C"
1

Reference source for all entries: ChEMBL document CHEMBL3611985
